Sourced from patent US20250042905A1

Recorded measurements of inhibition at 1 µM, one per entry
target: PD brain-derived alpha-synuclein aggregates (Homo sapiens, UniProt P37840); construct: PD brain-derived alpha-synuclein aggregates were spotted onto microarray slides; from tissue; host or cells: human Parkinson's disease patient brain; assay: Micro-radiobinding competition assay for the determination of binding affinity; conditions: non-radiolabelled example compound at 1 μM; competition with tritiated reference alpha-synuclein ligand (20 nM or 30 nM); 100% = excess non-radiolabelled reference ligand; read-out: Competition at 1 μM (%)
Report only the number, with the unit % understood.

// solved cases for inhibition at 1 µM follow
O=C1c2cn(-c3cnc(N4CCCC(F)CC4)cn3)nc2CN1c1cccnc1 (centres unmarked) [Example 15]    67
O=C1c2cn(-c3ccc(N4CCCCC(F)C4)nn3)nc2CN1c1cccnc1 (centres unmarked) [Example 33]    35
Cc1ccc(N2Cc3nn(-c4cnc(N5CC[C@H](F)C5)cn4)cc3C2=O)cn1 [Example 18]    82
Cn1cc(N2Cc3nn(-c4ccc(N5CC[C@@H](F)C5)nn4)cc3C2=O)cn1 [Example 21]    86

// inhibition at 1 µM value for Cn1cc(N2Cc3nn(-c4cnc(N5CCCCC(F)C5)cn4)cc3C2=O)cn1 (centres unmarked) [Example 8] : 78

The measured inhibition at 1 µM associated with Cc1ccc(N2Cc3nn(-c4cnc(N5CC(F)C5)cn4)cc3C2=O)cn1 [Example 19] reads 74

compound O=C1c2cn(-c3ccc(C(F)(F)F)nn3)nc2CN1c1cccnc1 [Example 35] , inhibition at 1 µM observed: 34

// sample Cc1ccc(N2Cc3nn(-c4ccc(N5CC[C@@H](F)C5)nn4)cc3C2=O)cn1 [Example 29] , its inhibition at 1 µM was 42
